Cited source: paper PMC4184797

Biological target: darcin (Mus musculus, UniProt Q5FW60)
Construct: N-terminal His6-tagged recombinant darcin (mature protein)
Sequence (Q5FW60 20-181): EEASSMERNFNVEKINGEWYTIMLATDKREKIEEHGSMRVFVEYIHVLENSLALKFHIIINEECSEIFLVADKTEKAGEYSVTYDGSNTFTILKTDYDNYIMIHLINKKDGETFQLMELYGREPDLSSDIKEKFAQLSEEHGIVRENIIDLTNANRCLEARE
Experiment: ITC, one-site model, […] °C; also 1H-15N HSQC NMR titration
pKd: −log10 of the molar value.

COMPOUND: CCC(C)c1nccs1 (stereo not shown)
pKd: ~6.76

---

Biological target: MUP11 (Mus musculus)
Construct: N-terminal His6-tagged recombinant MUP11 (mature protein)
Sequence (P04938 20-181): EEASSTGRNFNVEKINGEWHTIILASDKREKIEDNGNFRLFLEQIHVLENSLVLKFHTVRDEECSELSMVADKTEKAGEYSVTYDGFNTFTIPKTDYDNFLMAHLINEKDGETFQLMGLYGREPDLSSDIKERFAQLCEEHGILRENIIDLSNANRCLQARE
Assay: ITC, one-site model, […] °C; also 1H-15N HSQC NMR titration
ASSAY METRIC: Kd

MOLECULE: CCC(C)c1nccs1 (stereo not shown)
ASSAY METRIC: Kd
MEASURED VALUE: ~2.76 µM
